I'd be grateful if you could share measured agonist EC50 (cAMP AlphaScreen) for these entries.
# target_of_assay: mouse melanocortin-1 receptor (mouse, UniProt Q01727 1-315)
# Sequence (Q01727 whole entry): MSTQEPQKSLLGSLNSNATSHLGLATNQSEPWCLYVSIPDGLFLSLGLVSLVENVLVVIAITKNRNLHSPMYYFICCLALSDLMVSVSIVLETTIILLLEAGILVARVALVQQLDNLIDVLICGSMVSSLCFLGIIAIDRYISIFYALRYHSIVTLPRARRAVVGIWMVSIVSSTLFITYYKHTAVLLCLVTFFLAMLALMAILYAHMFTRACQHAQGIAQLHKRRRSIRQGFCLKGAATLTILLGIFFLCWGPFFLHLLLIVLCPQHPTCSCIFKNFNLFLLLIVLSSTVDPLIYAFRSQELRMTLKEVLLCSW
# assay_procedure: cell-based or functional assay
Square brackets hold non-standard residues; d marks the D form. hPhe = N[C@@H](CCc1ccccc1)C(=O)O; Nle = CCCC[C@H](N)C(=O)O; Dap = NC[C@H](N)C(=O)O

### Prompt Could you share which agonist EC50 (cAMP AlphaScreen) value was measured for PRFFXAFP (head-to-tail cyclic; hPhe at 4; Dap at 5; DPro at 8) [c[Pro-Arg-Phe-hPhe-Dap-Ala-Phe-DPro]] ?
### Response 560 nM

### Prompt Could you share which agonist EC50 (cAMP AlphaScreen) value was measured for cyclo(PRFF[Dap]SF[dP]) (SMILES N=C(N)NCCC[C@@H]1NC(=O)[C@@H]2CCCN2C(=O)[C@H]2CCCN2C(=O)[C@H](Cc2ccccc2)NC(=O)[C@H](CO)NC(=O)[C@H](CN)NC(=O)[C@H](Cc2ccccc2)NC(=O)[C@H](Cc2ccccc2)NC1=O) [c[Pro-Arg-Phe-Phe-Dap-Ser-Phe-DPro]] ?
### Response 600 nM

### Prompt Could you share which agonist EC50 (cAMP AlphaScreen) value was measured for cyclo(PRFF[Dap]S[Nle][dP]) (SMILES CCCC[C@@H]1NC(=O)[C@H](CO)NC(=O)[C@H](CN)NC(=O)[C@H](Cc2ccccc2)NC(=O)[C@H](Cc2ccccc2)NC(=O)[C@H](CCCNC(=N)N)NC(=O)[C@@H]2CCCN2C(=O)[C@H]2CCCN2C1=O) [c[Pro-Arg-Phe-Phe-Dap-Ser-Nle-DPro]] ?
### Response > 100000 nM

### Prompt Could you share which agonist EC50 (cAMP AlphaScreen) value was measured for cyclo(PRFFRSF[dP]) (SMILES N=C(N)NCCC[C@@H]1NC(=O)[C@H](Cc2ccccc2)NC(=O)[C@H](Cc2ccccc2)NC(=O)[C@H](CCCNC(=N)N)NC(=O)[C@@H]2CCCN2C(=O)[C@H]2CCCN2C(=O)[C@H](Cc2ccccc2)NC(=O)[C@H](CO)NC1=O) [c[Pro-Arg-Phe-Phe-Arg-Ser-Phe-DPro]] ?
### Response > 100000 nM

### Prompt Could you share which agonist EC50 (cAMP AlphaScreen) value was measured for cyclo(PRFFNSF[dP]) (SMILES N=C(N)NCCC[C@@H]1NC(=O)[C@@H]2CCCN2C(=O)[C@H]2CCCN2C(=O)[C@H](Cc2ccccc2)NC(=O)[C@H](CO)NC(=O)[C@H](CC(N)=O)NC(=O)[C@H](Cc2ccccc2)NC(=O)[C@H](Cc2ccccc2)NC1=O) [c[Pro-Arg-Phe-Phe-Asn-Ser-Phe-DPro]] ?
### Response 1200 nM

### Prompt Could you share which agonist EC50 (cAMP AlphaScreen) value was measured for cyclo(PRFF[Dap]A[Nle][dP]) (SMILES CCCC[C@@H]1NC(=O)[C@H](C)NC(=O)[C@H](CN)NC(=O)[C@H](Cc2ccccc2)NC(=O)[C@H](Cc2ccccc2)NC(=O)[C@H](CCCNC(=N)N)NC(=O)[C@@H]2CCCN2C(=O)[C@H]2CCCN2C1=O) [c[Pro-Arg-Phe-Phe-Dap-Ala-Nle-DPro]] ?
### Response 190 nM

### Prompt Could you share which agonist EC50 (cAMP AlphaScreen) value was measured for cyclo(PRF[hPhe]RA[Nle][dP]) (SMILES CCCC[C@@H]1NC(=O)[C@H](C)NC(=O)[C@H](CCCNC(=N)N)NC(=O)[C@H](CCc2ccccc2)NC(=O)[C@H](Cc2ccccc2)NC(=O)[C@H](CCCNC(=N)N)NC(=O)[C@@H]2CCCN2C(=O)[C@H]2CCCN2C1=O) [c[Pro-Arg-Phe-hPhe-Arg-Ala-Nle-DPro]] ?
### Response > 100000 nM

### Prompt Could you share which agonist EC50 (cAMP AlphaScreen) value was measured for cyclo(PRFFNAF[dP]) (also: assayed as TFA salt) [c[Pro-Arg-Phe-Phe-Asn-Ala-Phe-DPro]] ?
### Response 2800 nM

### Prompt Could you share which agonist EC50 (cAMP AlphaScreen) value was measured for cyclo(PRF[hPhe]RS[Nle][dP]) (SMILES CCCC[C@@H]1NC(=O)[C@H](CO)NC(=O)[C@H](CCCNC(=N)N)NC(=O)[C@H](CCc2ccccc2)NC(=O)[C@H](Cc2ccccc2)NC(=O)[C@H](CCCNC(=N)N)NC(=O)[C@@H]2CCCN2C(=O)[C@H]2CCCN2C1=O) [c[Pro-Arg-Phe-hPhe-Arg-Ser-Nle-DPro]] ?
### Response 400 nM

### Prompt Could you share which agonist EC50 (cAMP AlphaScreen) value was measured for PRFFXAFP (head-to-tail cyclic; Dap at 5; DPro at 8) [c[Pro-Arg-Phe-Phe-Dap-Ala-Phe-DPro]] ?
### Response 1600 nM

### Prompt Could you share which agonist EC50 (cAMP AlphaScreen) value was measured for cyclo(PRF[hPhe]NS[Nle][dP]) (SMILES CCCC[C@@H]1NC(=O)[C@H](CO)NC(=O)[C@H](CC(N)=O)NC(=O)[C@H](CCc2ccccc2)NC(=O)[C@H](Cc2ccccc2)NC(=O)[C@H](CCCNC(=N)N)NC(=O)[C@@H]2CCCN2C(=O)[C@H]2CCCN2C1=O) [c[Pro-Arg-Phe-hPhe-Asn-Ser-Nle-DPro]] ?
### Response > 100000 nM

### Prompt Could you share which agonist EC50 (cAMP AlphaScreen) value was measured for cyclo(PRFFNS[Nle][dP]) (SMILES CCCC[C@@H]1NC(=O)[C@H](CO)NC(=O)[C@H](CC(N)=O)NC(=O)[C@H](Cc2ccccc2)NC(=O)[C@H](Cc2ccccc2)NC(=O)[C@H](CCCNC(=N)N)NC(=O)[C@@H]2CCCN2C(=O)[C@H]2CCCN2C1=O) [c[Pro-Arg-Phe-Phe-Asn-Ser-Nle-DPro]] ?
### Response 2600 nM

### Prompt Could you share which agonist EC50 (cAMP AlphaScreen) value was measured for cyclo(PRFFRAF[dP]) [c[Pro-Arg-Phe-Phe-Arg-Ala-Phe-DPro]] ?
### Response 600 nM

### Prompt Could you share which agonist EC50 (cAMP AlphaScreen) value was measured for cyclo(PRF[hPhe][Dap]A[Nle][dP]) (SMILES CCCC[C@@H]1NC(=O)[C@H](C)NC(=O)[C@H](CN)NC(=O)[C@H](CCc2ccccc2)NC(=O)[C@H](Cc2ccccc2)NC(=O)[C@H](CCCNC(=N)N)NC(=O)[C@@H]2CCCN2C(=O)[C@H]2CCCN2C1=O) [c[Pro-Arg-Phe-hPhe-Dap-Ala-Nle-DPro]] ?
### Response > 100000 nM

Data provenance is patent US20200115416A1.
